Test method notes: Cmax in Sprague-Dawley rat at 2.724 mg/kg, iv
Format: ADME, organism-based
Design: dose 2.724 mg/kg, route intravenous
Measurement context: in vivo
Property: Cmax
Could you write the number and then its unit?

compound CO[C@H]1C[C@@H]2CC[C@@H](C)[C@@](O)(O2)C(=O)C(=O)N2CCCC[C@H]2C(=O)O[C@H]([C@H](C)C[C@@H]2CC[C@@H](OCCOC(=O)CSC[C@H](NC(=O)CC[C@H](N)C(=O)O)C(=O)NCC(=O)O)[C@H](OC)C2)CC(=O)[C@H](C)/C=C(\C)[C@@H](O)[C@@H](OC)C(=O)[C@H](C)C[C@H](C)\C=C/C=C/C=C/1C , Cmax observed: 8420 ng/mL

====

Test method notes: Drug uptake in Sprague-Dawley rat blood at 10 mg/kg, po after 1 hr by HPLC method
Format: ADME, organism-based
Measurement context: read-out: Drug uptake
Property: concentration at 1 h
# output: numeric value plus its unit

What the record says about CO[C@H]1C[C@@H]2CC[C@@H](C)[C@@](O)(O2)C(=O)C(=O)N2CCCC[C@H]2C(=O)O[C@H]([C@H](C)C[C@@H]2CC[C@@H](OCCO)[C@H](OC)C2)CC(=O)[C@H](C)/C=C(\C)[C@@H](O)[C@@H](OC)C(=O)[C@H](C)C[C@H](C)\C=C/C=C/C=C/1C : concentration at 1 h is 99.2 ng/mL

====

Test method notes: Solubility of the compound in water
Format: physicochemical
Property: solubility (µg/mL)
Give bare numbers, in µg/mL.

The recorded solubility for entry CO[C@H]1C[C@@H]2CC[C@@H](C)[C@@](O)(O2)C(=O)C(=O)N2CCCC[C@H]2C(=O)O[C@H]([C@H](C)C[C@@H]2CC[C@@H](OCCO)[C@H](OC)C2)CC(=O)[C@H](C)/C=C(\C)[C@@H](O)[C@@H](OC)C(=O)[C@H](C)C[C@H](C)\C=C/C=C/C=C/1C equals 1

====

Test method notes: Drug uptake in Sprague-Dawley rat blood at 10 mg/kg, po after 3 hrs by HPLC method
Format: ADME, organism-based
Measurement context: read-out: Drug uptake
Property: concentration at 3 h (ng/mL)
Answers are plain numbers, in ng/mL.

Short answer for CO[C@H]1C[C@@H]2CC[C@@H](C)[C@@](O)(O2)C(=O)C(=O)N2CCCC[C@H]2C(=O)O[C@H]([C@H](C)C[C@@H]2CC[C@@H](OCCO)[C@H](OC)C2)CC(=O)[C@H](C)/C=C(\C)[C@@H](O)[C@@H](OC)C(=O)[C@H](C)C[C@H](C)\C=C/C=C/C=C/1C : concentration at 3 h was 64.3

====

Test method notes: Drug uptake in Sprague-Dawley rat blood at 10 mg/kg, po after 2 hrs by HPLC method
Format: ADME, organism-based
Measurement context: read-out: Drug uptake
Property: concentration at 2 h (µg/mL)
One number for each entry, in µg/mL.

Recorded result, CO[C@H]1C[C@@H]2CC[C@@H](C)[C@@](O)(O2)C(=O)C(=O)N2CCCC[C@H]2C(=O)O[C@H]([C@H](C)C[C@@H]2CC[C@@H](OCCO)[C@H](OC)C2)CC(=O)[C@H](C)/C=C(\C)[C@@H](O)[C@@H](OC)C(=O)[C@H](C)C[C@H](C)\C=C/C=C/C=C/1C , concentration at 2 h: 0.0697
